- testSystem: T1, Anti-CD28 scFv (VH - linker 1 - VL) (biotinylated (site not stated))
- T1 construct: Biotinylated scFv captured on neutravidin coated plates in the panning ELISA
- T1 sequence (scFv, as listed by the source): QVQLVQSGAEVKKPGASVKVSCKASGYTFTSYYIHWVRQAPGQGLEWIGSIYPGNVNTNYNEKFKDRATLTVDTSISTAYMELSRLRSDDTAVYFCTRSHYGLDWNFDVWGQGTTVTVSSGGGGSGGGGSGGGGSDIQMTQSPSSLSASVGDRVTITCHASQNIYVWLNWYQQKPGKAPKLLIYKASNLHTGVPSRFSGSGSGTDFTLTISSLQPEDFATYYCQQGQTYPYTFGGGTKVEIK
- methodNotes: phage ELISA; biotinylated anti-CD28 scFv on neutravidin plate, wells pre-incubated with soluble CD28 (competitor), anti-M13-HRP detection;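 also: bound clonal phage detected by peroxidase-labelled anti-M13 antibody, compared against wells given blocking buffer alone without soluble CD28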
# CD28 scFv signal in presence of CD28 per entry
Please give the numeric answer without any surrounding text.

Guide cases for CD28 scFv signal in presence of CD28, answers given:
{"binder": "MDWCPRHLWFECFN (tested as crude phage supernatant) [Phage-293]", "CD28 scFv signal in presence of CD28": 0.171}
{"binder": "MDWCPRSLWDYCFA (tested as crude phage supernatant) [Phage-294]", "CD28 scFv signal in presence of CD28": 0.235}
{"binder": "MDWCPRHLWNECFA (tested as crude phage supernatant) [Phage-306]", "CD28 scFv signal in presence of CD28": 0.17}

Kindly review the next binder as well.
Which CD28 scFv signal in presence of CD28 value is on record for MDWCPRYLWPVCFH (tested as crude phage supernatant) [Phage-307] ?
0.602
